Target desc: Bromodomain adjacent to zinc finger domain protein 2B (Homo sapiens)
Protocol summary: qHTS Assay for Inhibitors of BAZ2B; also: nearly all actives have a fitted effect of over 60% in size
Stated conditions: AlphaScreen BAZ2B-H3K14Ac peptide displacement; series mostly up to 114 µM
The campaign covered roughly 360,000 compounds. About 16,000 (4.4%) were called active. About 9% were inconclusive and are not listed. Calls follow the shape of the dose curve; as a rule, active = well fitted inhibition curve with a large enough effect; inconclusive = small, poorly fitted or top-dose-only effect; inactive = no such curve, though single readings can be large or run the other way. The sample as a whole holds a higher share of actives than the screen did.
# valid calls are label 1 (active), label 0 (inactive); nothing else

Example entries begin here.
Compound | Target desc | Assigned label
O=C1CC(c2ccc(F)cc2F)c2cc3c(cc2N1)OCO3 (stereo not given) | Bromodomain adjacent to zinc finger domain protein 2B (Homo sapiens) | label 0
COc1ccc(C(c2nnnn2Cc2cccs2)N2CCN(c3ccccc3)CC2)cc1OC (stereo not given) | Bromodomain adjacent to zinc finger domain protein 2B (Homo sapiens) | label 0
CCOC(=O)C1CCCN(CC(=O)Nc2cc(C)c3c(=O)oc4ccccc4c3n2)C1 (stereo not given) | Bromodomain adjacent to zinc finger domain protein 2B (Homo sapiens) | label 0
C#CCOCCOCCOCCNc1nc(N2CCN(C(=O)[C@H](CCCCN)n3cc([C@@H](N)C(C)CC)nn3)CC2)nc(N2CCN(C(=O)[C@H](Cc3ccc(O)cc3)n3cc([C@@H](N)C(C)CC)nn3)CC2)n1 (stereo not given in full) | Bromodomain adjacent to zinc finger domain protein 2B (Homo sapiens) | label 1

Hi, do you know how CCn1cc(C(=O)OCC(=O)Nc2cc(C)cc(C)c2)c(=O)c2ccc(C)nc21 came out in this test?
label 0

Test call, this compound: CCc1ccc(CNC(=O)c2ccc(CS(=O)c3ccc(Br)cc3)o2)cc1 (stereo not given)
label 0

Any idea what this test logged for COc1cccc(C(=O)NCc2ccc3c(c2)CCN3C(=O)c2ccncc2)c1 ?
label 0

GET /call?item= CCS(=O)(=O)N1CCc2cc(C(=O)NCc3ccc(C)cc3)ccc21 returns the recorded outcome of this test.
label 0

For O=S(=O)(NC1CCCCC1N1CCN(c2ccccc2F)CC1)c1ccccc1 (stereo not given) , which call appears in the assay record?
label 0

// outcome(item) with item = COC(=O)c1ccc(NC(=S)NN2CCOCC2)cc1
label 0

Could you kindly confirm the outcome this assay logged for N#Cc1c2c(c(-c3ccccc3)[nH]c1=O)CCCC2 ?
label 0

What outcome does the record of this test show for CCC1CCCCN1Cc1c(O)ccc2c(=O)c(Oc3ccccc3Cl)c(C(F)(F)F)oc12 (stereo not given) ?
label 0

Assay outcome for Cc1ccc(C)c(S(=O)(=O)c2nnn3c2nc(N2CCOCC2)c2sccc23)c1 : what was it?
label 0

Hello, I am checking results. What call was entered for Cc1ccc(C(=O)NC(=S)Nc2ccc(N3CCOCC3)cc2)cc1 ?
label 1

Per the records of this test, what outcome belongs to O=C1CC(c2nnc(Cc3ccc(Cl)cc3)o2)CN1c1ccccc1 (stereo not given) ?
label 0

Write down the call the test reported for this compound. Item: C#CCOCCOCCOCCNc1nc(N2CCN(C(=O)[C@H](Cc3ccc(O)cc3)n3cc(C(N)CC(C)C)nn3)CC2)nc(N2CCN(C(=O)[C@H](CCC(=O)O)n3cc(C(N)[C@H](C)CC)nn3)CC2)n1 (stereo not given in full)
label 1

What call does the record list for O=C(NCc1ccccc1)c1cc(-c2cccc(Cl)c2)on1 ?
label 0

Could you please tell me the result logged for COc1ccc(CNC(=O)c2ccc3c(O)c(S(=O)(=O)c4ccccc4)c(=O)[nH]c3c2)cc1 in this assay?
label 0

Hello, I am checking results. What call was entered for CCCOc1ccccc1C1CC(=O)Nc2cc3c(cc21)OCO3 (stereo not given) ?
label 1

Hi, do you know how O=C(O)C(c1ccccc1)N1C(=O)/C(=C\c2ccc(-c3cccc(Cl)c3)o2)SC1=S (stereo not given) came out in this test?
label 1

Recorded call for O=c1nc2s/c(=C\c3ccco3)c(=O)n2nc1Cc1ccccc1 ?
label 1

I'd appreciate the recorded outcome for O=C(Nc1cc(Cl)cc(Cl)c1)c1ccc2c(c1)N(Cc1cccc(Cl)c1)C(=O)c1ccccc1S2=O (stereo not given) from this test.
label 0

Name the outcome recorded for Cc1ccc(C(=O)NC(=S)NCCN2CCOCC2)cc1 in the assay.
label 0

Given COc1cccc(N=C2SC(C(=O)Nc3cccc(Cl)c3)CC(=O)N2C)c1 (stereo not given) , state the outcome it received in this test.
label 0

What call does the record list for Cc1cc(C)c(/C=C/c2onc(C)c2S(=O)(=O)N2CCC(C(=O)Nc3ccc(Cl)cc3C)CC2)c(C)c1 ?
label 0

----------
Target desc: Bromodomain adjacent to zinc finger domain protein 2B (Homo sapiens) (UniProt Q9UIF8)
Sequence (Q9UIF8 whole entry, looked up, the tested form may be a part): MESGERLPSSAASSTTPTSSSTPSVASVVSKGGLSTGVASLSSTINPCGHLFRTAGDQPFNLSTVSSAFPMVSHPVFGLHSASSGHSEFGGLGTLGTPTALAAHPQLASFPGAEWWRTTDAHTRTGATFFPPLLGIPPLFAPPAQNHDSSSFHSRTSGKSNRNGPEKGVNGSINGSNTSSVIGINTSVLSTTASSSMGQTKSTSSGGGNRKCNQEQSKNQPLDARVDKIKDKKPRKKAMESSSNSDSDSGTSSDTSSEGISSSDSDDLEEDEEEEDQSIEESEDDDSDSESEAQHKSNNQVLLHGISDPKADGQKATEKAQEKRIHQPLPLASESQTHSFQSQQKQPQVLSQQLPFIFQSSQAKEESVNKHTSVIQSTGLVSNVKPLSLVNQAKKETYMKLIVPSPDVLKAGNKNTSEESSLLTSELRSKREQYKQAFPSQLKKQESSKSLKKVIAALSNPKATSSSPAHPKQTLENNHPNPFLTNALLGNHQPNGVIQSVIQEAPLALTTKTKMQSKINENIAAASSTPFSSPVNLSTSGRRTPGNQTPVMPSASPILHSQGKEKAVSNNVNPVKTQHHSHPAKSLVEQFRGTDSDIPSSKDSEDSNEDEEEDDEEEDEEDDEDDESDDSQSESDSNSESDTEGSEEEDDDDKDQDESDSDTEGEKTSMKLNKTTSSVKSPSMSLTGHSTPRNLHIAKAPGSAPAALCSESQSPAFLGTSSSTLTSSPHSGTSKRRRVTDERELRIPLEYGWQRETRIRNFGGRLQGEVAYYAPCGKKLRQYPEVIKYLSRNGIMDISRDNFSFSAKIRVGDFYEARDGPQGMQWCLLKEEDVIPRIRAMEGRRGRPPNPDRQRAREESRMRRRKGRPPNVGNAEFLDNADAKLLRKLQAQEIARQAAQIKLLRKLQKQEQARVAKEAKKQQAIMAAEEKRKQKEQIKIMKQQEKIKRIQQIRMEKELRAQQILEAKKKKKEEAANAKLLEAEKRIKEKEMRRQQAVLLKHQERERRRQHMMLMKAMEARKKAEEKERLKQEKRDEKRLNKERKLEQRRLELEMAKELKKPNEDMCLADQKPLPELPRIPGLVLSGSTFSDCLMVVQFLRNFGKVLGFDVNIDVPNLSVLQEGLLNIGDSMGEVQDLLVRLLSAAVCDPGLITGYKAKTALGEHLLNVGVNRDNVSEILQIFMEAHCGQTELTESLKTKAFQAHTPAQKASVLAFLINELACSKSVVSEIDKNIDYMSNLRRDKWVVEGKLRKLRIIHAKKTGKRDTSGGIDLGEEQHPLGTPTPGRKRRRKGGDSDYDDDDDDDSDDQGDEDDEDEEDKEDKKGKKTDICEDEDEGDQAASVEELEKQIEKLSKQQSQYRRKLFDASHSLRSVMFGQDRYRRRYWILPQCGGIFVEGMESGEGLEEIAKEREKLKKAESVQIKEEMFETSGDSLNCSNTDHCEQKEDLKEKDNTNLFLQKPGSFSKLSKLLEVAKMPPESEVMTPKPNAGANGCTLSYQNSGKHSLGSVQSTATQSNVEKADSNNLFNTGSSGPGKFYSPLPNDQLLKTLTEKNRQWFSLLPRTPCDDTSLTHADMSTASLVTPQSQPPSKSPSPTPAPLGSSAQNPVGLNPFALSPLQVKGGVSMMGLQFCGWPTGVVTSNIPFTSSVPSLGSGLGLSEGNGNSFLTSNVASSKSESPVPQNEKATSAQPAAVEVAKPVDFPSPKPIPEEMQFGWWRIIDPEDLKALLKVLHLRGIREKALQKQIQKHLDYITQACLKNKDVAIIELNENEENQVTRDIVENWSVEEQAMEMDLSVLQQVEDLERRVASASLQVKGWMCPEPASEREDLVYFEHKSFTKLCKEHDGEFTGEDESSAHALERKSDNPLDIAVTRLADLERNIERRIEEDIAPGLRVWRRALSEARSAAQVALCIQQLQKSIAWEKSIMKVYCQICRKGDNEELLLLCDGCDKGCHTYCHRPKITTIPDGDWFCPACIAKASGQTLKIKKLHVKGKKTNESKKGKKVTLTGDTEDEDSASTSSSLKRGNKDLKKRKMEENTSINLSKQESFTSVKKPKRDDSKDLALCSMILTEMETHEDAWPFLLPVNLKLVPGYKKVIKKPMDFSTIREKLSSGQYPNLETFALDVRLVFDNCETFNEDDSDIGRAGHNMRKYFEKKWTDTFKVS
Protocol summary: qHTS Assay for Inhibitors of BAZ2B; also: nearly all actives have a fitted effect of over 60% in size
Stated conditions: AlphaScreen BAZ2B-H3K14Ac peptide displacement; series mostly up to 114 µM
Hit rate of the full screen: of about 360,000 compounds, about 16,000 (4.4%) were called active. Roughly 9% stayed inconclusive and do not appear here. Calls come from the whole dose curve; as a rule, active = well fitted inhibition curve with a large enough effect; inconclusive = small, poorly fitted or top-dose-only effect; inactive = no such curve, though single readings can be large or run the other way. Shown is part of a subset that was picked to be rich in actives.
Hi! Could you answer with just one of these? label 1 (active), label 0 (inactive)

Compound | Target desc | Assigned label
Cc1cc2oc(C(=O)N(Cc3ccc(Cl)cc3)Cc3ccco3)c(C)c2cc1Cl | Bromodomain adjacent to zinc finger domain protein 2B (Homo sapiens) (UniProt Q9UIF8) | label 0
CCCCN=C1C([N+](=O)[O-])=CC=C2C1=NC1(CCCCC1)N2O | Bromodomain adjacent to zinc finger domain protein 2B (Homo sapiens) (UniProt Q9UIF8) | label 1
O=C(NCc1ccc(F)cc1)c1ccc2nc(N3CCCCC3)sc2c1 | Bromodomain adjacent to zinc finger domain protein 2B (Homo sapiens) (UniProt Q9UIF8) | label 0
COc1cccc(C2Nc3cccc4cccc(c34)N2)c1 | Bromodomain adjacent to zinc finger domain protein 2B (Homo sapiens) (UniProt Q9UIF8) | label 1
COc1ccc(C2NC(=O)c3ccccc3N2)cc1 (stereo not given) | Bromodomain adjacent to zinc finger domain protein 2B (Homo sapiens) (UniProt Q9UIF8) | label 0
Cc1ccc2sc(N(Cc3cccnc3)C(=O)C3COc4ccccc4O3)nc2c1C (stereo not given) | Bromodomain adjacent to zinc finger domain protein 2B (Homo sapiens) (UniProt Q9UIF8) | label 0

Here is another compound to look at.
Test call for this compound, please: CCOc1ccccc1OCCCNCc1ccccc1
label 1

----------
Target desc: Bromodomain adjacent to zinc finger domain protein 2B (Homo sapiens) (UniProt Q9UIF8)
Protocol summary: qHTS Assay for Inhibitors of BAZ2B; also: nearly all actives have a fitted effect of over 60% in size
Stated conditions: AlphaScreen BAZ2B-H3K14Ac peptide displacement; series mostly up to 114 µM
In all, about 360,000 compounds went through this assay and about 16,000 (4.4%) were called active. About 9% were inconclusive and are not listed. The call rests on the fitted dose curve; in most records, active means well fitted inhibition curve with a large enough effect; inconclusive means small, poorly fitted or top-dose-only effect; inactive means no such curve, though single readings can be large or run the other way. Many of the other results were omitted from the sample, so actives are more common in it than they were.
I would appreciate it if you answered using one of these outcomes: active, inactive

Structure smiles string | Assigned label
O=C(CCS(=O)(=O)c1ccc(Br)cc1)NCCc1ccc(Cl)cc1 | active
COc1ccc(Cl)cc1NC(=O)CCS(=O)(=O)c1cc2c(cc1C)NC(=O)CO2 | inactive

What outcome does the record of this test show for CC(C)c1ccc(Cc2nnc(NCCCO)[nH]c2=O)cc1 ?
inactive

----------
Target desc: Bromodomain adjacent to zinc finger domain protein 2B (Homo sapiens)
Protocol summary: qHTS Assay for Inhibitors of BAZ2B; also: nearly all actives have a fitted effect of over 60% in size
Stated conditions: AlphaScreen BAZ2B-H3K14Ac peptide displacement; series mostly up to 114 µM
Description: BAZ2B (bromodomain adjacent to zinc finger domain, 2B) belongs to a family of ubiquitously expressed bromodomain containing proteins, which biological function has not yet been elucidated. […] Yasgar, et al. Compound Management for Quantitative High-Throughput Screening. […] Inglese, et al. Quantitative high-throughput screening: a titration-based approach that efficiently identifies biological activities in large chemical libraries. […]
The whole screen tested about 360,000 compounds, of which about 16,000 (4.4%) were called active. Not shown: some 9% with an inconclusive outcome. The call rests on the fitted dose curve; in most records, active means well fitted inhibition curve with a large enough effect; inconclusive means small, poorly fitted or top-dose-only effect; inactive means no such curve, though single readings can be large or run the other way. What follows is part of a selection rich in actives, with near analogues and random picks from the rest.
Use one of these outcomes when replying: active, inactive

Worked examples follow.
Structure smiles string | Target desc | Assigned label
COC(=O)COc1ccc2c(c1C)O/C(=C\c1ccco1)C2=O | Bromodomain adjacent to zinc finger domain protein 2B (Homo sapiens) | active
COc1ccccc1OCC(=O)OCc1cc(-c2ccco2)on1 | Bromodomain adjacent to zinc finger domain protein 2B (Homo sapiens) | inactive
Cc1csc2nc(COC(=O)c3ccc(NC(=O)COc4ccccc4F)cc3)cc(=O)n12 | Bromodomain adjacent to zinc finger domain protein 2B (Homo sapiens) | inactive
N#Cc1c(Cl)nc(-c2cccnc2)nc1-c1ccccc1 | Bromodomain adjacent to zinc finger domain protein 2B (Homo sapiens) | active

Okay, next one:
Hi, sorry to bother you, what did the test record for Cc1cc(C)c(OCC(=O)N/N=C/c2ccco2)c(C)c1 ?
inactive

----------
Target desc: Bromodomain adjacent to zinc finger domain protein 2B (Homo sapiens)
Protocol summary: qHTS Assay for Inhibitors of BAZ2B; also: nearly all actives have a fitted effect of over 60% in size
Stated conditions: AlphaScreen BAZ2B-H3K14Ac peptide displacement; series mostly up to 114 µM
In all, about 360,000 compounds went through this assay and about 16,000 (4.4%) were called active. Another 9% or so got no clear call; they are omitted. Calls come from the whole dose curve; as a rule, active = well fitted inhibition curve with a large enough effect; inconclusive = small, poorly fitted or top-dose-only effect; inactive = no such curve, though single readings can be large or run the other way. The full list was thinned out, with actives kept by preference.
Hi there, use one of these labels in your reply, thanks! t for active, f for inactive

How did this test come out for CCOc1ccccc1N(CC)C(=O)c1cc2ccc3cccnc3c2[nH]1 ?
f

Please let me know the test result on file for Cc1cccnc1NC(=O)c1cccc(S(=O)(=O)N2CCN(c3ccc(F)cc3)CC2)c1 .
f

Record request — test call for O=C(COc1ccccc1[N+](=O)[O-])N/N=C/c1ccc[nH]1
f

Any idea what this test logged for Oc1c(CN2CCCC2)cc(COCc2ccccc2)c2cccnc12 ?
t

Sourced from PubChem BioAssay AID504333
